Source: the supplement of paper PMC6555819

# Test system: RARa homodimer (NR concentration 270 nM)
# ASSAY EXPLANATION: PBM binding z-score (relative to random genomic background probes); higher = stronger binding; sequences stand for … in GC…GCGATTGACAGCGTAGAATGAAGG
MEASURED PARAMETER: PBM binding z-score
Enter the number alone.

Retrieve PBM binding z-score measured for ACTAGCAGGACAAGTTTGGGTCACTCAAACAAAG and print it.
-0.279

Kindly indicate its recorded PBM binding z-score. Item: TAGCCTAGGTCATGGGTCAGTATACCACGCGAAC
0.889

Please look at this sequence and report its PBM binding z-score: TTACCAAGGTGCAGGTCGTTGATCCCTCTGTAGA
-0.516

Identify measured PBM binding z-score corresponding to CAAACCAGGTCACCGGAAGGTCAAAGTCCGCATG
3.77

Write down PBM binding z-score measured for item CGAACTAGGTCAAGGACAGCGAATCTCCGCACGC
0.554

Supply reported PBM binding z-score belonging to this sequence: GCTGCTACGTCAGGTTGGTCAGCTAACGGGTACG
-1.16

Supply PBM binding z-score value. Item: ATCTCTACGTAAAGTTCAGTGAAAGATCGATAGA
1.12

Answer with the recorded PBM binding z-score of CCGACTGGGGCAAGGTAACCATAACGCACAGCCA only.
0.0514

Give the value of PBM binding z-score reported for the following: CAAACTAGGTCACAGAGGTCATAGTCCGTGCGTA
3.54

Answer with reported PBM binding z-score of TAGCCTGGGTCATTCAGGGGCCAGTATAGAAAGC
-0.568

Query PBM binding z-score for GCATAAAGGTAATACAAGGTGAAAGTCCGATTGT
0.262

Fill in PBM binding z-score for record CGAACTAGGTTATCCAGGACAGTGAATACATTGA
0.298

Report PBM binding z-score, nothing else, for this sequence: TCATATATGTAAACAGGTGAAAGTCCGTAAGTTA
0.262

Indicate the recorded PBM binding z-score value for this sequence: ATCTCGAGGTAAGACTCAGTTCAGTGAAGAACGC
-0.44

====

# System: LXRb homodimer (NR concentration 270 nM)
# ASSAY EXPLANATION: PBM binding z-score (relative to random genomic background probes); higher = stronger binding; sequences stand for … in GC…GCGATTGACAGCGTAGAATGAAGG
Grouping by measured PBM binding z-score is done with the following cut points: low (below -0.4), mid (-0.4 to below 0.2), high (0.2 or more)

// return the class label for TTACCAAGGTGAAGGTCGTTGACCCCTCTGTAGA
low

Any idea which band CCTTACGGTTCACGAGGTTATAGCACGACGAGCG is in?
mid

Band for the recorded PBM binding z-score of ATCGAGAGGTCGTGAGGTGAGTATACAGAAAGGC ?
mid

Pick a category. Item: ATCTCTAGATAAAAGTTCAGTGAATCCCGAGGAT
high

Form: Item = GATACAGGGTCAGCTAGATGCCAGAGTATGGAAA ; Class = ?
low

Please indicate the class for CATGCTAGGTCAATGGTCAGCTAAAGCAGCTCGC based on its PBM binding z-score.
mid

Please let me know in which category the item GATACATGGTCAAGGCCAGAGTACGCGTATTGAT belongs.
low

Which class does CCTAGCAGGCCAGTCTGGGTCACTCAAGGCTTGA fall in?
low

Form field 'band' for CGTCCAAGGTCAGCAGGTCAGTAAAAGCGACGTG
mid

Band assignment needed for GCTAGTTAGTCAGTAAAAGGTCACACACCGGTCG please.
high

Into which category would you place TAGCCTAGGTCATGGGCCAATATACCACGCGAAC ?
mid

State the band of TGAATGAGGTTATAAGATCAGGGGACGTTGCAAA
high

Which bin should I file ACTAGCAGGCCAAGTTTGGGTCACACAAACAAAG under?
mid

# bin label for CTACCAATGTGAACAAGGTCGTTGATTACTATTC
high

Band of AGAACGAGGGCACGCTGAGTTGATAGGAGAGTAG ?
low

Tag the class for CCTACTGGGTCAAAAAGGTCATTGATGCCGATAA
high

For CCTGCTAGGTCATTGTCAGCTAATCTACAGTATG , which PBM binding z-score bin applies?
high

Could you place ACTAGCAGGCCAAGGGTCGCTCAAGATTAGTCCG in its proper category? Many thanks.
low

Class? Entry: ACTATTAGTTGAGACGAGGGCAACCGGTAGGTTG
mid

Which category does the recorded PBM binding z-score put TCTGCTAGGTCAGTGGGTCAGCTAACGAGCTGCC in?
mid

====

# Test system: PPARg homodimer (NR concentration 180 nM)
# ASSAY EXPLANATION: PBM binding z-score (relative to random genomic background probes); higher = stronger binding; sequences stand for … in GC…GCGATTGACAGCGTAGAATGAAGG
We use 0.7 as the dividing line for PBM binding z-score: on or above the line is label 1, below is label 0.

Could you please find out whether AGACTGAGGTTATACGTAGATCAGGGAAGAAAGT has PBM binding z-score that meets 0.7 or exceeds it?
label 0

Item TCTAGTTGGTCAAGGGTCACACACTCGAAATGCG with PBM binding z-score of 0.7 or above?
label 1

Threshold query (PBM binding z-score >= 0.7) on ATATGTAGGTTATCGGGTCGTTCAGTTTGCGCAT
label 1

Tell me whether PBM binding z-score is at least 0.7 here: CCGAGTAGCTTATGGGGCATTCAGGCAACGGTGA
label 0

Check the entry CTCGAAAGGTCGTGCTCAGGTCAGTATACCAAAC : does PBM binding z-score equal or exceed 0.7?
label 1

Evaluate CCTTACGGGTCACGAGGTTTTAGCACGACGAGCG : PBM binding z-score at minimum 0.7?
label 1

Form field: PBM binding z-score at least 0.7? Entry: GCATATAGATAATACAAGGTGAAAGTCCGATTGT
label 1

====

I'd be grateful if you could share measured PBM binding z-score for these entries.
# Test system: RXRa DBDmut IVT, anti-RXR (DBD mutation: RXRa K156A/R161A, NR concentration 90 nM)
# ASSAY EXPLANATION: PBM binding z-score (relative to random genomic background probes); higher = stronger binding; sequences stand for … in GC…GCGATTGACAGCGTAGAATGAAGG

Param request: PBM binding z-score | system RXRa DBDmut IVT, anti-RXR (DBD mutation: RXRa K156A/R161A, NR concentration 90 nM) | item ACTTGCAGGCCAAGTTTGGGTCACTCAAACAAAG
0.31

Name the value of PBM binding z-score reported for AATACAAGGTCACTAGGCCAGAGTAGGTACGAAT when tested on RXRa DBDmut IVT, anti-RXR (DBD mutation: RXRa K156A/R161A, NR concentration 90 nM).
3.29

Report its PBM binding z-score with RXRa DBDmut IVT, anti-RXR (DBD mutation: RXRa K156A/R161A, NR concentration 90 nM) as the test system: ATATGTAGGATAAGGGTCATTCAGGTTGGTTCGC
2.09

Please report the measured PBM binding z-score for ACAATGAGGTTATACGTAGATCAGGGAAGAAAGT tested on RXRa DBDmut IVT, anti-RXR (DBD mutation: RXRa K156A/R161A, NR concentration 90 nM).
2.02

====

Exercise: state measured PBM binding z-score for each of the sequences provided.
# Test system: PPARg DBDmut IVT, anti-PPARg (DBD mutation: PPARg1 K132A/R137A, NR concentration 270 nM)
# ASSAY EXPLANATION: PBM binding z-score (relative to random genomic background probes); higher = stronger binding; sequences stand for … in GC…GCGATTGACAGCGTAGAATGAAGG
Lab note: jot the number down without any unit.

# return recorded PBM binding z-score for entry CGAACTAGGTCATTGACAGGACAGTGAGTAGTAA
2.61

Could you please provide reported PBM binding z-score for ATCTCTAGGTAAAAGTTCAGTGCATCCCGAGGAT ? Thanks!
1.05

In one line, give reported PBM binding z-score of the entry ATCTCTATGTAAGACTCAGTTCAGTGAAGAACGC .
1.3

Give the reported PBM binding z-score for this sequence. TCTCGGAGGACACGAAAGGTCAGAGGTCGACATC
-0.569

Annotate the sequence AGTCCAAGTTCATCTAGGTAACGTAAGATATGCT with its measured PBM binding z-score.
0.824

Please report the measured PBM binding z-score for CCTAGTTGGTCAAGGGCACACACGCTATAGGTAC
0.0269

====

# Tested on: LXRa homodimer (NR concentration 270 nM)
# ASSAY EXPLANATION: PBM binding z-score (relative to random genomic background probes); higher = stronger binding; sequences stand for … in GC…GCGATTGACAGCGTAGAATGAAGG
The label depends only on PBM binding z-score: fulfilled if it is at least 0.07, not fulfilled if it is smaller.

Is PBM binding z-score at least 0.07? Consider ACAGACAGGTGATGAAGGTAACTCCGGCTATCAT
not fulfilled

Would you say ACTCTGAGGACAAAGGTCAGAGCTACGCCAGTGA shows PBM binding z-score at minimum 0.07?
fulfilled

Hi team, for ACAGACAGGTGAGTGAAGCTAACTCAGCTGGACG , is the recorded PBM binding z-score at or above 0.07?
not fulfilled

Check if PBM binding z-score >= 0.07 (inclusive). Item: ATATGTAGGTTAGCTGGGGTCATACAGACTAGGC
fulfilled

Record CCTAGCAGGCCAATCTGGGTCACTCATGGCTTGA ; criterion: PBM binding z-score no lower than 0.07. Met?
not fulfilled

Exam item: decide whether the reported PBM binding z-score for CCTTACGGGTAAAGGTTATAGCACGGGTGGTACG is at least 0.07.
fulfilled

# bool: PBM binding z-score of CGTCCAGGGTCAAAGGTCAGTGAAGAGATGACGG >= 0.07
fulfilled

Form field: PBM binding z-score at least 0.07? Entry: TAGCCTAGGTCAGATCGGGTCAGTATACGCTATA
fulfilled

Entry TCTCGGAGGACACGAAAGGTCAGACCTCGACATC : is its PBM binding z-score no less than 0.07?
fulfilled

Form field: PBM binding z-score at least 0.07? Entry: TCAATTAGTTGAAGGGCAACCGACGAGTCCGTTT
fulfilled

Evaluate ATCTCTAGGTAACAGGTTCAGTGAAAGAGAGGAC : PBM binding z-score at minimum 0.07?
fulfilled

Answer whether PBM binding z-score of CGTCCAAGGTCAGAGAGGTCAGTGAATGCCGAGT is greater than or equal to 0.07.
fulfilled

hey, is PBM binding z-score for this one >= 0.07? AGACTGAGGTTACCAAAGATCAGGGAAACGCTTG
not fulfilled

Kindly determine if PBM binding z-score recorded for GCAGACAGGTGAAACGCAGGTAACTCAGGGTGGC is above or exactly 0.07.
not fulfilled

Determine whether measured PBM binding z-score meets or exceeds 0.07 for CAGCCTAGGTCAGGGCCATTATAGGAGGAACGTT
not fulfilled

Reported PBM binding z-score at or above 0.07? ACTCGGAGGACAAAGGTTAGAGCTACGCCAGTGA
not fulfilled

API: above_or_equal(metric=PBM binding z-score, cutoff=0.07) for item GGAACGAGGGCATTCGAGGTGATAGCATGGCGAT
not fulfilled

Evaluate AGAATGAGGTTATTAAGATCAGAGAATTGCGGTC : PBM binding z-score at minimum 0.07?
not fulfilled

Hi team, for CCTTACGGGTCATTCCAGGTTATAGCATCGGAGT , is the recorded PBM binding z-score at or above 0.07?
fulfilled

Say whether GCATATAGGTAATACAACGTGAAAGTCCGATTGT shows PBM binding z-score of 0.07 or more.
not fulfilled

Threshold query (PBM binding z-score >= 0.07) on TCCCGGAGGACACGAAAGGTCAGAGCTCGACATC
fulfilled
